measured-on: hMC4R (Homo sapiens (Human), UniProt P32245)
Sequence (P32245 whole entry): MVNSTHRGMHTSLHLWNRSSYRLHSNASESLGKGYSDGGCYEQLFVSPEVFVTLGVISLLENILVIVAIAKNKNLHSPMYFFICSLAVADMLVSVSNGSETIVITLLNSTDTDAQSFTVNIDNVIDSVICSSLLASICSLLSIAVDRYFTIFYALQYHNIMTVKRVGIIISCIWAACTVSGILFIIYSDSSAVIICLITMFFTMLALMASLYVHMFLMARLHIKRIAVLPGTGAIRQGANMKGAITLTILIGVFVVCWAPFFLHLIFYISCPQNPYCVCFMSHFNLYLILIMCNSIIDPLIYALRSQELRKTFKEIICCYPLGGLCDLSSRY
test-protocol: Transactivation test: melanocortin receptors (pCRE-Luc luciferase reporter), hMC4R
Type: cell-based
condition-info: HEK293 transfected with pCRE-Luc and hMC4R; products tested alone (agonist), 6 h incubation; % activity vs NDP-MSH 10 nM; IA: inactive
observed-property: pEC50
Numbers only, as −log10 of the molar value.

These solved cases illustrate the format of a correct answer.
CCCCOC1(c2ccccc2C)CN(C(=O)[C@@H](Cc2ccc(OC)cc2)NC(=O)[C@@H](O)Cc2c[nH]cn2)C1 [Compound 71] : 5.40
CCCCOC1(c2ccccc2C)CN(C(=O)C(Cc2ccc(OC)cc2)NC(=O)CC(CCC)c2c[nH]cn2)C1 (stereo not drawn) [Compound 62] : 6.30
CC#CCOC1(c2ccccc2C)CN(C(=O)[C@@H](Cc2ccc(OC)cc2)NC(=O)CCc2nc[nH]c2C)C1 [Compound 76] : 5.40

List the reported pEC50 of each molecule below.
1. CCCCCC1(c2ccccc2)CN(C(=O)[C@@H](Cc2ccccc2F)NC(=O)CCc2c[nH]cn2)C1 [Compound 57]
2. CCCCOC1(c2ccc(F)cc2)CN(C(=O)[C@@H](Cc2ccc(F)cc2)NC(=O)CCc2c[nH]cn2)C1 [Compound 32]
3. COc1ccc(C[C@@H](NC(=O)CCc2c[nH]cn2)C(=O)N2CC(OCC3CC3)(c3ccccc3C)C2)cc1 [Compound 20]
4. COc1ccc(C[C@H](NC(=O)[C@H](Cc2c[nH]cn2)NC(=O)c2ccccc2)C(=O)N2CC(OC(C)=O)(c3ccccc3C)C2)cc1 [Compound 5]

Out:
[5.40, 5.40, 5.40, 5.10]

* * *

measured-on: UniProtKB Q01726
Sequence (Q01726 whole entry): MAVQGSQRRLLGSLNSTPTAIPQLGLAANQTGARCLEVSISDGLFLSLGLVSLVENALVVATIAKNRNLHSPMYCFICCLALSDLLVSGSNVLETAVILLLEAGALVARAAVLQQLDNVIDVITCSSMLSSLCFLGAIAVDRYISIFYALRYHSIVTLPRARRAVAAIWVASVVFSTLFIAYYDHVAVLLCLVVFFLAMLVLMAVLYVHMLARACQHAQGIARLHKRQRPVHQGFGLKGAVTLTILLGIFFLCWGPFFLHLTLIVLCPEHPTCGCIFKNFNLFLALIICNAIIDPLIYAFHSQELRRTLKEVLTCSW
test-protocol: Transactivation test: melanocortin receptors (pCRE-Luc luciferase reporter), hMC1R
Format: cell-based
condition-info: HEK293 transfected with pCRE-Luc and hMC1R; products tested alone (agonist), 6 h incubation; % activity vs NDP-MSH 10 nM; IA: inactive
observed-property: pEC50
One number for each entry, as −log10 of the molar value.

COc1ccc(C[C@@H](NC(=O)CCc2nc[nH]c2C)C(=O)N2CC(OCC=C(C)C)(c3ccccc3C)C2)cc1 : 7.82
CCCCCC1(c2ccccc2Cl)CN(C(=O)[C@@H](Cc2ccc(OC)cc2)NC(=O)CCc2c[nH]cn2)C1 : 7.52
CCCCOC1(c2ccc(F)cc2)CN(C(=O)[C@H](Cc2ccc(OC)cc2)NC(=O)[C@H](Cc2c[nH]cn2)NC(=O)c2ccccc2)C1 : 6.92

# input for lookup
Item: CCCCCC1(c2c(F)cccc2F)CN(C(=O)[C@@H](Cc2ccc(OC)cc2)NC(=O)CCc2c[nH]cn2)C1 | pEC50: 6.92

* * *

measured-on: hMC4R (Homo sapiens (Human))
test-protocol: Transactivation test: melanocortin receptors (pCRE-Luc luciferase reporter), hMC4R
condition-info: HEK293 transfected with pCRE-Luc and hMC4R; products tested alone (agonist), 6 h incubation; % activity vs NDP-MSH 10 nM; IA: inactive
observed-property: EC50 (µM)
One number for each entry, in µM.

CCCCOC1(c2cccc(F)c2)CN(C(=O)[C@H](Cc2ccc(OC)cc2)NC(=O)[C@H](Cc2c[nH]cn2)NC(=O)c2ccccc2)C1 : 1
COc1ccc(C[C@@H](NC(=O)CCc2nc[nH]c2C)C(=O)N2CC(OCC=C(C)C)(c3ccccc3C)C2)cc1 : 4
CCCCOC1(c2ccc(F)cc2)CN(C(=O)[C@@H](Cc2cccc(F)c2)NC(=O)CCc2c[nH]cn2)C1 : 4
CCCCCC1(c2ccccc2)CN(C(=O)[C@@H](Cc2cccc(F)c2)NC(=O)CCc2c[nH]cn2)C1 : 8
CCCCCC1(C2CCCCC2)CN(C(=O)[C@@H](Cc2ccc(OC)cc2)NC(=O)CCc2c[nH]cn2)C1 : 0.25
CCCCOC1(c2ccccc2)CN(C(=O)[C@H](Cc2ccc(OC)cc2)NC(=O)[C@H](Cc2c[nH]cn2)NC(=O)c2ccccc2)C1 : 4

# input for lookup
Item: CCCCOC1(c2ccccc2C)CN(C(=O)[C@@H](Cc2ccc(OC)cc2)NC(=O)CCc2cncn2C)C1 | EC50: 0.5
